These data points were gathered from patent US5134137A.

Tested on: Staphylococcus aureus
Test: MIC, agar dilution, Staphylococcus aureus
Type: cell-based
Conditions: Staphylococcus aureus; strain UC9203; read-out: MIC
Protocol: Stock solution of each test antibiotic compound were prepared to have a concentration of 2 mg. of the test compound per milliliter in sterile water of 0.1M ammonium acetate solution. The amount of each compound used was adjusted for base compound activity as calculated from the purity data for the selected batch of compound. The dilution procedure described by Washington and Sutter [Manual of Clinical Microbiology, 3rd, Edit. […]
attribute measured: MIC (µg/mL)

compound	target system	value measured
CO/N=C(\C(=O)N[C@@H]1C(=O)N2C(C(=O)O)=C(CSSc3ccc([N+](=O)[O-])cc3)CS[C@H]12)c1csc(N)n1	Staphylococcus aureus	2
CCCCSSCC1=C(C(=O)O)N2C(=O)[C@@H](NC(=O)/C(=N\OC)c3csc(N)n3)[C@H]2SC1	Staphylococcus aureus	4
CCC(C)SSCC1=C(C(=O)O)N2C(=O)[C@@H](NC(=O)/C(=N\OC)c3csc(N)n3)[C@H]2SC1 (stereo partly drawn)	Staphylococcus aureus	2
CCCSSCC1=C(C(=O)O)N2C(=O)[C@@H](NC(=O)/C(=N\OC)c3csc(N)n3)[C@H]2SC1	Staphylococcus aureus	8
CO/N=C(\C(=O)N[C@@H]1C(=O)N2C(C(=O)O)=C(CSSc3ccccc3)CS[C@H]12)c1csc(N)n1	Staphylococcus aureus	2

1: CO/N=C(\C(=O)N[C@@H]1C(=O)N2C(C(=O)O)=C(CSSC3CCCCC3)CS[C@H]12)c1csc(N)n1
2: CO/N=C(\C(=O)N[C@@H]1C(=O)N2C(C(=O)O)=C(CSSCC3=C(C(=O)O)N4C(=O)[C@@H](NC(=O)/C(=N\OC)c5csc(N)n5)[C@H]4SC3)CS[C@H]12)c1csc(N)n1
Q: // pick min by MIC: 1 , 2 Return value: the label identifying the chosen record.
Ans: 1
